biological target: folate receptor alpha (FRα) on cells (human, UniProt P15328 25-234); experiment: cell-based or functional assay
Sequence (P15328 25-234): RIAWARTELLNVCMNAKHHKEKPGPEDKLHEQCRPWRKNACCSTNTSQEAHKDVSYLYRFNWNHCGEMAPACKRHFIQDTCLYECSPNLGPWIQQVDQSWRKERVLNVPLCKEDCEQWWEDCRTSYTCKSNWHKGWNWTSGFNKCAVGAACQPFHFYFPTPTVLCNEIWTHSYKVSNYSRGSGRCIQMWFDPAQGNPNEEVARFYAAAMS
Readout Name: IC50, in vitro cytotoxicity (WST-8, 5 days), Igrov-1 cells, +Block

Solved cases (4 shown):
Mov19v1.6-GMBS-dAlalAla-PAB-DM1 (conjugate 4b) (antibody, human IgG1, kappa, V domains shown, D-Ala-L-Ala-PAB-DM1 linked through GMBS, about 3.5 DM/Ab) VH: QVQLVQSGAEVVKPGASVKISCKASGYTFTGYFMNWVKQSPGQSLEWIGRIHPYDGDTFYNQKFQGKATLTVDKSSNTAHMELLSLTSEDFAVYYCTRYDGSRAMDYWGQGTTVTVSS VL: DIVLTQSPLSLAVSLGQPAIISCKASQSVSFAGTSLMHWYHQKPGQQPRLLIYRASNLEAGVPDRFSGSGSKTDFTLTISPVEAEDAATYYCQQSREYPYTFGGGTKLEIKR; 20 nM
conjugate 17h (antibody, human IgG1, kappa, V domains shown, thio-peptide-maytansinoid 14h linked through sulfo-GMBS to antibody amines (Example 4)) VH: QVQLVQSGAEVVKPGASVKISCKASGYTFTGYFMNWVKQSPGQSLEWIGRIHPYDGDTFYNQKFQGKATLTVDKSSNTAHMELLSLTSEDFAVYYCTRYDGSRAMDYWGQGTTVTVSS VL: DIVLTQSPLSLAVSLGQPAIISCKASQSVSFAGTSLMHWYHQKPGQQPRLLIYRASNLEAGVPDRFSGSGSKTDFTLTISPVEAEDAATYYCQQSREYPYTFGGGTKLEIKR; > 50 nM
M9346A-sGMBS-LDL-DM (conjugate 17c) (antibody, human IgG1, kappa, V domains shown, maytansinoid LDL-DM (compound 14c, L-Ala-D-Ala-L-Ala) linked through sulfo-GMBS to antibody amines, 3.7 mol LDL-DM/mol antibody) VH: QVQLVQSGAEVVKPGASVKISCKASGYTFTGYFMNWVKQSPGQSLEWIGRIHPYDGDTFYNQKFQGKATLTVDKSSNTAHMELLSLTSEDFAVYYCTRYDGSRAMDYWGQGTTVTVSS VL: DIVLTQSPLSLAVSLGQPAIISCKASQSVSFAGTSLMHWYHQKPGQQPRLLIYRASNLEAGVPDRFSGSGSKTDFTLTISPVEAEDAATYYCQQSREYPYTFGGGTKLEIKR; > 50 nM
conjugate 17i (antibody, human IgG1, kappa, V domains shown, thio-peptide-maytansinoid 14i linked through sulfo-GMBS to antibody amines (Example 4)) VH: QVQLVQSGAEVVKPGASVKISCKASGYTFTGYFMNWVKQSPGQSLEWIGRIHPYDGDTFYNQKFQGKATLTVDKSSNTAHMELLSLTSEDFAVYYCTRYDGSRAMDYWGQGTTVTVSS VL: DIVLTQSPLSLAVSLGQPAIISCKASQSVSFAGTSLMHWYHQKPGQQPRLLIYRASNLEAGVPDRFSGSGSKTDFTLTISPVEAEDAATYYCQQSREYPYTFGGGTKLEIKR; > 50 nM

Switching to the query record.
Query :: Request the reported IC50, in vitro cytotoxicity (WST-8, 5 days), Igrov-1 cells, +Block associated with conjugate 17g (antibody, human IgG1, kappa, V domains shown, thio-peptide-maytansinoid 14g linked through sulfo-GMBS to antibody amines (Example 4)) VH: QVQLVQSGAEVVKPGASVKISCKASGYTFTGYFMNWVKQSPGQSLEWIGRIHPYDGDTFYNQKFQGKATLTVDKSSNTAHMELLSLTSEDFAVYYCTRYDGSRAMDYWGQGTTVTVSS VL: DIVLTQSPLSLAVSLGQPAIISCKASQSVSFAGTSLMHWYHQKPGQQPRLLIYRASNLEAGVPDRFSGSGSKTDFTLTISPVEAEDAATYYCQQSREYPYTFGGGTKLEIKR
Result :: > 50 nM

Cited source for all entries: patent US20180296694A1
